For KIT kinase (Homo sapiens, UniProt P10721), measured Kd is reported for the entries below.

Known results for molecules:
- Molecule: "CC(C)(C)c1cc(NC(=O)Cc2ccc(-c3ccc(N)nc3)cc2)on1 [Example 84, methanesulfonate]"
  Endpoint: "Kd"
  Recorded Result: "1 to 10 nM"
- Molecule: "CC1(c2cc(NC(=O)Nc3ccc(-c4ccc(N)nc4)cn3)no2)CC1.CS(=O)(=O)O [Example 104, methanesulfonate]"
  Endpoint: "Kd"
  Recorded Result: "≤ 1 nM"
- Molecule: "Cc1cc(-c2ccc(CC(=O)Nc3cc(C4(C)CC4)on3)cc2)cnc1N"
  Endpoint: "Kd"
  Recorded Result: "≤ 1 nM"
- Molecule: "CC(C)(c1cc(NC(=O)Nc2ccc(-c3ccc(NCCN4CCOCC4)nc3)cc2)no1)C(F)(F)F [Example 39, methanesulfonate]"
  Endpoint: "Kd"
  Recorded Result: "1 to 10 nM"

Identify the measured Kd of CCNc1ccc(-c2ccc(CC(=O)Nc3cc(C(C)(C)C)on3)cc2)cn1.CS(=O)(=O)O [Example 111, methanesulfonate] for KIT kinase (Homo sapiens, UniProt P10721). ≤ 1 nM

meta.source: patent US20130035326A1
